Measured values drawn from patent US9469615B2 for this set.

Consider the following compounds; for each one, report its Ki.
# Target Entity: hCRTH2 (Homo sapiens, UniProt Q9Y5Y4)
# Construct: expressed in transfected cells; host or cells: HEK (human embryonic kidney) cells expressing hCRTH2; membrane preparation
# Sequence (Q9Y5Y4 whole entry): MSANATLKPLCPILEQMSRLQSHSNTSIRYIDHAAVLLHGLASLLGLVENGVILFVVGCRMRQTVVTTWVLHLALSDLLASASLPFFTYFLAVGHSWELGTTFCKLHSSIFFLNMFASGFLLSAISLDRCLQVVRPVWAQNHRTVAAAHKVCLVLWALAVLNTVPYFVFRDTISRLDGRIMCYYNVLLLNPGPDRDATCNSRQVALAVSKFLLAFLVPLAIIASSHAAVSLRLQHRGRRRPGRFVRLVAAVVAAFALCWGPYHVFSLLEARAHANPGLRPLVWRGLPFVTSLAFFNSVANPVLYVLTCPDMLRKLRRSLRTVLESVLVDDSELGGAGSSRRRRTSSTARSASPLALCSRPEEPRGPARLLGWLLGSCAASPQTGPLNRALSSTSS
# Assay Name: Radioligand binding assay ([3H]PGD2 competition, HEK-hCRTH2 membranes)
# Assay Conditions: [3H]PGD2 competition, Table B

Some compounds with known Ki results, for comparison:
{"Compound": "O=C(O)C1CCC(Cc2nc3cc(C(=O)N4CC(c5ccc(F)cc5)C4)ccc3nc2-c2ccc(Cl)cc2)C1 (centres unmarked) [compound 396]", "Ki": "2.1 to 20 nM"}
{"Compound": "O=C(O)CCCCc1nc2cc(C(=O)N3CC(c4ccc(Cl)cc4)C3)ccc2nc1-c1ccc(Cl)cc1 [compound 426]", "Ki": "0.1 to 2 nM"}
{"Compound": "CN(C)c1cccc(-c2nc3ccc(C(=O)N[C@@H]4CCCc5ccccc54)cc3nc2CCCCC(=O)O)c1 [compound 330]", "Ki": "2.1 to 20 nM"}

// for each compound in input: emit Ki
1. C[C@@H](CCCc1nc2cc(C(=O)N[C@H](C)c3ccc(Cl)cc3)ccc2nc1-c1ccc(F)cc1)C(=O)O [compound 517]
2. O=C(O)CCCCc1nc2cc(C(=O)N3CCC4(CC3)NC(=O)c3ccccc3O4)ccc2nc1-c1ccc(Cl)cc1 [compound 344]
3. O=C(O)CCCCc1nc2cc(C(=O)NC3C(=O)Nc4ccccc43)ccc2nc1-c1ccc(Cl)cc1 (centres unmarked) [compound 566]
4. O=C(O)CCCCc1nc2cc(C(=O)N[C@@H]3CCCc4cccnc43)ccc2nc1-c1ccccc1 [compound 370]

2.1 to 20 nM
2.1 to 20 nM
2.1 to 20 nM
201 to 700 nM

// for each compound in input: emit Ki
1. C[C@@H](NC(=O)c1ccc2nc(-c3ccccc3)c(CC3CC(C(=O)O)C3)nc2c1)c1ccc(F)cc1 (some centres unmarked) [compound 422]
2. O=C(O)CCCCc1nc2cc(C(=O)N[C@@H]3CCOc4cc(F)ccc43)ccc2nc1-c1ccc(Cl)cc1 [compound 532]

2.1 to 20 nM
2.1 to 20 nM

// for each compound in input: emit Ki
1. C[C@H](NC(=O)c1ccc2nc(-c3ccccc3)c(CCCCC(=O)O)nc2c1)c1ccc(F)cn1 [compound 474]
2. O=C(O)Cc1cccc(CCCc2nc3cc(C(=O)N4CC[C@@H](c5ccccc5)C4)ccc3nc2-c2ccc(F)cc2)c1 [compound 274]
3. O=C(O)CCCCc1nc2cc(C(=O)N[C@H]3c4ccccc4C[C@@H]3O)ccc2nc1-c1ccc(F)cc1 [compound 511]
4. C[C@@H](NC(=O)c1ccc2nc(-c3ccc(Cl)cc3)c(CCCc3cccc(CC(=O)O)c3)nc2c1)c1ccc(F)cc1 [compound 545]
5. COc1ccc2c(c1)CCC[C@H]2NC(=O)c1ccc2nc(-c3ccc(F)cc3)c(CCCC(F)(F)C(=O)O)nc2c1 [compound 589]

1. 2.1 to 20 nM
2. 2.1 to 20 nM
3. 2.1 to 20 nM
4. 201 to 700 nM
5. 20.1 to 200 nM
